These measurements were taken from ChEMBL document CHEMBL3430912.

Entries and their pIC50 values follow.
System: Trypanosoma brucei brucei
Assay: GSK_TCAKS: pIC50 Trypanosoma brucei viability assay using luminiscence. Assay plates (1536-well) were prepared. T. brucei cultures were harvested and counted in a CASY cell counter. A parasite suspension was prepared at a final concentration of 5 * 10^4 cells/mL in complete HMI9 medium and 6uL was dispensed to all wells containing compounds using a Multidrop Combi dispenser. 6uL of HMI9 media with 0.4% DMSO were dispensed to control columns. Plates were incubated for 24 h at 37C, 5% CO2 then tempered for 10 min at room temperature. ATP content was quantified by adding 4 uL of CellTiter-Glo Reagent (Promega) according to the manufacturer's instructions. Luminescence was measured using a ViewLux.
Format: functional, organism-based
Conditions: Lister 427, CASY
For clarity, pIC50 is expressed as the negative log10 of concentration in mol/L.

Could you tell me which pIC50 is on file for CC(=O)Nc1ccc(-c2ccnc(Nc3cccc(C#N)c3)n2)cc1 ?
6.10

---

Entries and their log10 IC50 values follow.
System: Trypanosoma cruzi
Test: GSK_TCAKS: pIC50 Trypanosoma cruzi Imaging: Amastigotes/Cell. […] Cells were then washed once with PBS before infection. T. cruzi trypomastigotes, collected at days 5 to 8 after infection from LLC-MK2 parasite infected cultures, were allowed to swim out for 4h at 37C from a centrifuged pellet (2,500 rpm/10 min/room temperature). Trypomastigotes were then collected and counted in a CASY Cell Counter. Trypomastigotes, in supplemented DMEM, were added to H9c2 cultures in a multiplicity of infection of 1 and incubated for 18 h. Cells were washed once with PBS before incubation of the infected H9c2 monolayer with trypsin (Life-Technologies) to detach cells from the flask. Cells were counted in a CASY Cell Counter using a 150 um capillary and their density set at 5 * 10^4 cells per mL in supplemented assay DMEM. Infected H9c2 were dispensed into 384-well poly-lysine coated assay plates at 50uL per well using a Multidrop Combi dispenser. After seeding them, the plates were incubated at 37C, 5% CO2 for 72h. Cultures were then fixed and stained by addition of 50 uL of a solution containing 8% formaldehyde and 4 uM DRAQ5 DNA dye (BioStatus, UK) per well. […] Five images were collected per well for reliable statistical analysis. Automated image analysis was performed with a script developed on Acapella High Content Imaging and Analysis Software (PerkinElmer). Output: number of amastigotes per cell as infection level measurement.
Assay type: functional, organism-based, Rattus norvegicus
Details: H9c2, 4 h
Note: values are log10 of IC50 expressed in µM.

[[record]]
compound = "CCCCNc1nccc(-c2c(-c3ccc(F)cc3)nn3c(N4CCOCC4)cccc23)n1"
measured_number = 0.00

[[record]]
compound = "CCN(Cc1ccncc1)Cc1ccc(NC(=O)c2cc(-c3ccc(F)cc3)n[nH]2)cc1"
measured_number = -0.60

[[record]]
compound = "CN(Cc1ccc(F)cc1)c1ccc(OCC(=O)N2CCCCC2c2cccnc2)nn1 (stereo unspecified)"
measured_number = -0.40

[[record]]
compound = "CCN(Cc1nc2ccc(C(=O)N3CCN(c4ncccn4)CC3)cc2[nH]1)C1CCCc2cccnc21 (stereo unspecified)"
measured_number = 0.30

[[record]]
compound = "Cc1ccccc1OCC(=O)N1CCCN(c2cccnn2)CC1"
measured_number = -0.30


Could you tell me which log10 IC50 is on file for CC(=O)Nc1ccc(-c2ccnc(Nc3cccc(C#N)c3)n2)cc1 ?
0.50

Could you tell me which log10 IC50 is on file for COc1ccc2ncc(Cl)c(CCN3CC[C@H](NCc4cc5c(cn4)OCS5)[C@@H](O)C3)c2n1 ?
-1.00

Could you tell me which log10 IC50 is on file for CN(C)Cc1ccc(N2CCC(NS(=O)(=O)c3ccc(Cl)cc3)CC2)cc1 ?
-0.60

Could you tell me which log10 IC50 is on file for COCc1cc(Nc2ccc(Cl)cc2)nc(-c2ccccn2)n1 ?
0.40
